Each item that follows carries a reported Sweet intensity of the compound and R1 blend solution.
Experiment: Sensory panel (8 experts): sweet intensity of sub-threshold sweetener solutions with and without R1 at 50 ppm
Type: in vivo
Conditions: compound 10 ppm plus R1 (Sichuan pepper oil) 50 ppm; scale 0 to 10
Excerpt: A panel consisting of 8 experts evaluating R1 adding in various sweeteners at 50 ppm for their sweet properties (0 denoted no sweet taste, 10 denoted too strong sweet taste). The sweetener dosage were designed under their sweetness threshold in water.
# print the numeric value only

| compound | observed |
| --- | --- |
| COc1cc([C@@H]2CC(=O)c3c(O)cc(O)cc3O2)ccc1O [Homoeriodictyol, homoeriodictyol] | 1.7 |

Suppose we examine the compound O=C1C[C@@H](c2ccc(O)c(O)c2)Oc2cc(O)cc(O)c21 [Eriodictyol, eriodictyol] ; what Sweet intensity of the compound and R1 blend solution value has been reported?
1.7

# get_value(readout='Sweet intensity of the compound and R1 blend solution', item= O=C1C[C@@H](c2ccc(O)cc2)Oc2cc(O)cc(O)c21 [Naringenin, naringenin] )
1.3

Bench note: what Sweet intensity of the compound and R1 blend solution did O=C(CCc1ccc(O)cc1)c1c(O)cc(O[C@@H]2O[C@H](CO)[C@@H](O)[C@H](O)[C@H]2O)cc1O [Trilobatin, trilobatin] show?
1.5
